target.system: human LPA1 (Homo sapiens, UniProt Q92633)
Construct: expressed in transfected cells; host or cells: CHO-K1
Sequence (Q92633 whole entry): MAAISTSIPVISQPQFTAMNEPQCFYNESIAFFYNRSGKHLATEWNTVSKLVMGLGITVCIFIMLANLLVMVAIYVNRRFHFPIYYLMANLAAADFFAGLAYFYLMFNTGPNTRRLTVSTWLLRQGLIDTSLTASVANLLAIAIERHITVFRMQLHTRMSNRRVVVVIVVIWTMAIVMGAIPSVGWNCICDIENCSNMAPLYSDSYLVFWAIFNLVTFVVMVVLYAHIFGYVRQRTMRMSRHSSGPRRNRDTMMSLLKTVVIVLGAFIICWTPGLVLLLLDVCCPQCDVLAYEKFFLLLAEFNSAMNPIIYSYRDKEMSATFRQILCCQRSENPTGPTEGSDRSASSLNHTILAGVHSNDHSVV
protocol.notes: In vitro LPA1 calcium flux antagonist assay - Bioduro protocol
Format: cell-based
condition.notes: CHO-K1 cells overexpressing human LPA1 and G15a; LPA challenge at EC80; calcium mobilization on FLIPR Tetra; read-out: IC50
Below, each of the molecules is paired with its reported IC50 value.
Expressed in nM, but write only the number.

Solved entries (count: 6):
>>> measured_number("COc1cc(OC)c(Cl)c(-c2ccc(NC3(C(=O)O)CCOCC3)cc2COC2CCCC2)c1")
8.41
>>> measured_number("CCCCOCc1cc(NC2(C(=O)O)CCOCC2)ccc1-c1cc(OC)c(C)c(OC)c1F")
5.56
>>> measured_number("COc1cc(-c2ccc(OC3(C(=O)O)CCOCC3)cc2CO[C@@H]2CCOC2)c(F)c(OC)c1C")
1610
>>> measured_number("COc1cc(-c2ccc(NC3(C(=O)O)CCOCC3)cc2COC2CCCC2)c(Cl)c(OC)c1C#N")
30.8
>>> measured_number("CCOc1c(C)c(OC)cc(-c2ccc(NC3(C(=O)O)CCOCC3)cc2COCC(C)C)c1F")
27.5
>>> measured_number("Cc1c(OC2CC2)cccc1-c1ccc(OC2(C(=O)O)CCOCC2)cc1COC1CC1")
57.4

GET /values?readout=IC50&item= CCCc1cccc(-c2ccc(NC3(C(=O)O)CCOCC3)cc2COC2CC2)c1F 124

GET /values?readout=IC50&item= COc1cc(-c2ccc(NC3(C(=O)O)CCC(F)(F)CC3)cc2COC2CCCC2)cc(OC)c1C 14.2

----------
Below, each of the compounds is paired with its reported pIC50 value.
target.system: human LPA1 (Homo sapiens)
Construct: expressed in transfected cells; host or cells: CHO-K1
protocol.notes: In vitro LPA1 calcium flux antagonist assay - Bioduro protocol
Type: cell-based
condition.notes: CHO-K1 cells overexpressing human LPA1 and G15a; LPA challenge at EC80; calcium mobilization on FLIPR Tetra; read-out: IC50
pIC50 is a log-scale quantity: -log10 of the concentration expressed in molar.

Solved entries (count: 3):
>>> measured_number("CCOc1cccc(-c2ccc(NC3(C(=O)O)CCOCC3)cc2COC2CC2)c1C(F)F")
8.38
>>> measured_number("CCOc1cc(OC)cc(-c2ccc(NC3(C(=O)O)CC3)cc2COC2CC2)c1F")
6.50
>>> measured_number("COc1cc(-c2ccc(NC3(C(=O)O)CC(OC)C3)cc2COC2CCCC2)c(C)c(OC)c1C (stereo not shown) [Compound 197]")
7.90

Now consider the entry below.
GET /values?readout=pIC50&item= CCOc1cc(-c2ccc(NCCC(=O)O)cc2COC2Cc3ccccc3C2)cc(OCC)c1C 5.15

----------
target.system: human LPA1 (Homo sapiens)
Construct: expressed in transfected cells; host or cells: CHO-K1
protocol.notes: In vitro LPA1 calcium flux antagonist assay - Bioduro protocol
Assay type: cell-based
condition.notes: CHO-K1 cells overexpressing human LPA1 and G15a; LPA challenge at EC80; calcium mobilization on FLIPR Tetra; read-out: IC50
pIC50: −log10 of the molar value.
Short version: pIC50 at least 7 is satisfied, less is not satisfied.

>>> classification("COc1cc(-c2ccc(OC3(C(=O)O)CC3)cc2COC2Cc3ccccc3C2)cc(OC)c1C")
"satisfied"
>>> classification("COc1cc(-c2ccc(N(C)CCC(=O)O)cc2COC2Cc3ccccc3C2)cc(OC)c1C")
"not satisfied"

I'd appreciate it if you could say whether COc1cc(-c2ccc(NC3(C(=O)O)CCOCC3)cc2COC2CCCC2)ccc1C has pIC50 at least equal to 7. not satisfied

I'd appreciate it if you could say whether CCOc1cncc(-c2ccc(C3(C(=O)O)CC3)cc2COC2CCCC2)c1C(F)F has pIC50 at least equal to 7. not satisfied

I'd appreciate it if you could say whether CCOC1CC(Nc2ccc(-c3cc(OC)c(C)c(OC)c3C)c(COC3CCCC3)c2)(C(=O)O)C1 (stereo not shown) [Compound 213] has pIC50 at least equal to 7. satisfied

I'd appreciate it if you could say whether COc1cc(-c2ccc(NC3(C(=O)O)CCCOC3)cc2COC2CCCC2)c(C)c(OC)c1C (single isomer, unassigned) [Compound 200] has pIC50 at least equal to 7. not satisfied

I'd appreciate it if you could say whether CCOc1cccc(-c2ccc(NC3(C(=O)O)CCOCC3)cc2COC2CCCC2)c1Cl has pIC50 at least equal to 7. satisfied

I'd appreciate it if you could say whether COc1cc(OC2CC2)cc(-c2ccc(NC3(C(=O)O)CCOCC3)cc2COC2CCCC2)c1F has pIC50 at least equal to 7. satisfied

I'd appreciate it if you could say whether CCOc1cccc(-c2ccc(OC3(C(=O)O)CCOCC3)cc2COC2CC2)c1Cl has pIC50 at least equal to 7. satisfied

----------
target.system: human LPA1 (Homo sapiens)
Construct: expressed in transfected cells; host or cells: CHO-K1
protocol.notes: In vitro LPA1 calcium flux antagonist assay - Bioduro protocol
Format: cell-based
condition.notes: CHO-K1 cells overexpressing human LPA1 and G15a; LPA challenge at EC80; calcium mobilization on FLIPR Tetra; read-out: IC50
Below, each of the compounds is paired with its reported log10 of IC50 value.
Recall that a logarithmic scale is used here: each number is log10 of IC50 in nM.

Solved entries (count: 5):
>>> measured_number("Cc1c(OC2CC2)cccc1-c1ccc(NC2(C(=O)O)CCOCC2)cc1COC1CC1")
0.77
>>> measured_number("COc1cc(-c2ccc(NC3(C(=O)O)CC(F)(F)C3)cc2COC2CC2)c(F)c(OC)c1C")
1.74
>>> measured_number("COc1cc(-c2ccc(NC3(C(=O)O)CCOCC3)cc2CCC2CCOC2)cc(OC)c1C (single isomer, unassigned) [Compound 185]")
1.10
>>> measured_number("COc1cc(-c2ccc(NC3(C(=O)O)CCOCC3)cc2COC2CCCC2)cc(OC)n1")
2.59
>>> measured_number("O=C(O)C1(Nc2ccc(-c3cccc(OC4CC4)c3F)c(COC3CC3)c2)CCOCC1")
1.71

GET /values?readout=log10 of IC50&item= CCOc1cncc(-c2ccc(NC3(C(=O)O)CCOCC3)cc2COC2Cc3ccccc3C2)c1C 0.72

GET /values?readout=log10 of IC50&item= COc1cc2c(c(-c3ccc(NC4(C(=O)O)CCOCC4)cc3COC3CCCC3)c1)OCO2 3.51

GET /values?readout=log10 of IC50&item= CCc1cccc(-c2ccc(NC3(C(=O)O)CCOCC3)cc2COC2CC2)c1F 2.61

GET /values?readout=log10 of IC50&item= COc1cc(OC2CC2)cc(-c2ccc(NC3(C(=O)O)CCOCC3)cc2COC2CCCC2)c1 0.97

GET /values?readout=log10 of IC50&item= CCOc1cncc(-c2ccc(NC3(C(=O)O)CCOCC3)cc2COC2CC2)c1C(F)F 1.36

GET /values?readout=log10 of IC50&item= CCOCc1cc(NC2(C(=O)O)CCOCC2)ccc1-c1cc(OC)c(C)c(OC)c1F 3.64

GET /values?readout=log10 of IC50&item= CCOc1c(C)ccc(-c2ccc(NC3(C(=O)O)CCOCC3)cc2COCC(C)C)c1C 1.99

GET /values?readout=log10 of IC50&item= CCOc1cc(OC)cc(-c2ccc(OC3(C(=O)O)CCOCC3)cc2COC2CCCC2)c1F 1.39

GET /values?readout=log10 of IC50&item= COc1cc(-c2ccc(C3(C(=O)O)CCOCC3)cc2COC2CCCC2)c(Cl)c(OC)c1C 2.30

GET /values?readout=log10 of IC50&item= CCOc1cc(-c2ccc(NC3(C(=O)O)CCOCC3)cc2COC2CCCC2)cc(OC)c1C 0.98

----------
target.system: human LPA1 (Homo sapiens)
Construct: expressed in transfected cells; host or cells: CHO-K1
protocol.notes: In vitro LPA1 calcium flux antagonist assay - Bioduro protocol
Assay type: cell-based
condition.notes: CHO-K1 cells overexpressing human LPA1 and G15a; LPA challenge at EC80; calcium mobilization on FLIPR Tetra; read-out: IC50
Description: In Vitro LPA1 Calcium Flux Antagonist Assay—Bioduro Protocol CHO-K1 cells overexpressing human LPA1 and G15a were seeded at a total volume of 20 μL (15000 cells/well) into Matrigel pre-coated 384-well plates (corning −3764) and incubated at 37° C. […] Calcium mobilization was measured on a FLIPR Tetra (MSD). […] Percentage inhibition is calculated using the following formula: % Inhibition=100%×(1−(mean RFU of test sample−mean RFU of DMSO)/(mean RFU of LPA control−mean RFU of DMSO)). […]
Decide using IC50 alone. Strictly below 60 nM: True. Equal to or above 60 nM: False.

// below: answered compounds
>>> classification("CCOc1cccc(-c2ccc(NC3(C(=O)O)CCC(F)(F)CC3)cc2COC2CC2)c1C(F)F")
"True"
>>> classification("COc1cc(-c2ccc(OC3(C(=O)O)CCOCC3)cc2COC2CCCC2)c(C)c(OC)c1C")
"True"

Lab note: IC50 threshold 60 nM. Does this compound come in strictly under it? COc1cc(-c2ccc(OC3(C(=O)O)CCOCC3)cc2COC2CC2)c(C)c(OC)c1C True

Lab note: IC50 threshold 60 nM. Does this compound come in strictly under it? COc1cc(-c2ccc(NCCC(=O)O)cc2OCC2(C)Oc3ccccc3O2)cc(OC)c1C False

Lab note: IC50 threshold 60 nM. Does this compound come in strictly under it? CCOc1cc(OC)cc(-c2ccc(C3(C(=O)O)CC3)cc2COC2CCCC2)c1F False

Lab note: IC50 threshold 60 nM. Does this compound come in strictly under it? O=C(O)C1(Nc2ccc(-c3cccc(OC4CC4)c3C(F)F)c(COC3CC3)c2)CCC(F)(F)CC1 True

Lab note: IC50 threshold 60 nM. Does this compound come in strictly under it? COc1cc(-c2ccc(NC3(C(=O)O)CCOCC3)cc2CO[C@@H]2CCC[C@H]2OC)c(C)c(OC)c1C (racemic) False
